molecular target: Acetylcholinesterase (Electrophorus electricus, UniProt O42275)
Sequence (O42275 whole entry): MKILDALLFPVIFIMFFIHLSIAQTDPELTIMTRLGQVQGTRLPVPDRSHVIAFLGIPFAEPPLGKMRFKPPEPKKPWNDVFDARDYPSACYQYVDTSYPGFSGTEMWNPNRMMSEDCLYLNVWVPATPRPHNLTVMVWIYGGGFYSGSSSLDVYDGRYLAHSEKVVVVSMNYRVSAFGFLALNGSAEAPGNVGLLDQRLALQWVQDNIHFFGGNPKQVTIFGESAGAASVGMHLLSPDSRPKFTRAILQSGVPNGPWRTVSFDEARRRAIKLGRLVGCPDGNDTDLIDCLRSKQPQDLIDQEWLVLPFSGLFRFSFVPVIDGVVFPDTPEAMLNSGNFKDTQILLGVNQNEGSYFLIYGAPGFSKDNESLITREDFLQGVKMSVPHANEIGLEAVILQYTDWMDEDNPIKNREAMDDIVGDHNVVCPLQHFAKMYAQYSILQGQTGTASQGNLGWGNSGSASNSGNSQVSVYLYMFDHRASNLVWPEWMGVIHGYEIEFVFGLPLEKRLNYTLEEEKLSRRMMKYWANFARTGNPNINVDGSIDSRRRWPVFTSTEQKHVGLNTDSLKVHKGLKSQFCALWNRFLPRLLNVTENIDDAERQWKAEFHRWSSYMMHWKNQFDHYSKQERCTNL
pIC50: −log10 of the molar value.
# binarize pIC50: threshold 6 inclusive, high side YES, low side NO

### Prompt Say whether O=C(CCCCC1CCSS1)NCCCCCCCC/N=c1/c2ccc(Cl)cc2nc2n1CCC2 (stereo unspecified) shows pIC50 of 6 or more.
### Response YES

### Prompt How about this molecule: `NCCCCCCCC/N=c1/c2ccccc2nc2n1CCCCCC2`
### Response NO

### Prompt Again, but for O=C(CCCCC1CCSS1)NCCCC/N=c1/c2ccc(Cl)cc2nc2n1CCC2 (stereo unspecified)
### Response NO

### Prompt Would you mind doing `NCCCCCCCC/N=c1/c2ccc(Cl)cc2nc2n1CCC2` as well?
### Response YES

### Prompt // query: `NCCC/N=c1/c2ccc(Cl)cc2nc2n1CCC2`
### Response NO

### Prompt Try this molecule too: `Clc1ccc2/c(=N/CCCCCCCC/N=c3/c4ccc(Cl)cc4nc4n3CCC4)n3c(nc2c1)CCC3`
### Response YES

### Prompt Also `NCCCCC/N=c1/c2ccc(Cl)cc2nc2n1CCC2` ?
### Response YES

### Prompt Same for O=C(CCCCC1CCSS1)NCCC/N=c1/c2ccc(Cl)cc2nc2n1CCC2 (stereo unspecified)
### Response NO

### Prompt Field entry: O=C(CCCCC1CCSS1)NCCCCC/N=c1/c2ccc(Cl)cc2nc2n1CCC2 (stereo unspecified)
### Response NO

### Prompt Try this molecule too: `c1ccc(C/N=c2/c3ccccc3nc3n2CCCCCCC3)cc1`
### Response NO

----------
assay: Antioxidant scavenging activity against AAPH-induced peroxyl radical assessed as trolox equivalent per uM of compound by ORAC-fluorescein assay; format: physicochemical
property: Activity
Form field (numeric): enter value without unit.

### Prompt Which value of Activity has been reported for `NCCCCCC/N=c1/c2ccc(Cl)cc2nc2n1CCC2` in the records?
### Response 0.2

### Prompt Also check O=C(CCCCC1CCSS1)NCCCCCCCC/N=c1/c2ccc(Cl)cc2nc2n1CCC2 (configuration not stated)
### Response 0.5

### Prompt Cool, now O=C(CCCCC1CCSS1)NCCC/N=c1/c2ccc(Cl)cc2nc2n1CCC2 (configuration not stated)
### Response 0.8

### Prompt Cool, now O=C(CCCCC1CCSS1)NCCCCCCCC/N=c1/c2ccccc2nc2n1CCCCCC2 (configuration not stated)
### Response 0.4

### Prompt Request: O=C(O)CCCCC1CCSS1 (configuration not stated)
### Response 0.6

### Prompt // repeat for `NCCCCCCCC/N=c1/c2ccccc2nc2n1CCCCCC2` and report
### Response 0.1

### Prompt Please give the result for `NCCCCCCCC/N=c1/c2ccc(Cl)cc2nc2n1CCC2` too.
### Response 0.1

----------
Quick record of pIC50 values for UniProtKB O42275.
Please report pIC50 as the negative decimal logarithm of the molar concentration, giving only the number.

### Prompt What pIC50 value was documented for this compound, `NCCCCCC/N=c1/c2ccc(Cl)cc2nc2n1CCC2` ?
### Response 5.83

### Prompt What would you report for `NCCCCCCC/N=c1/c2ccc(Cl)cc2nc2n1CCC2` ?
### Response 5.39

### Prompt Now give it for O=C(CCCCC1CCSS1)NCCCCCCC/N=c1/c2ccc(Cl)cc2nc2n1CCC2 (centres undefined) too.
### Response 5.71

### Prompt Thanks! And `NCCCC/N=c1/c2ccc(Cl)cc2nc2n1CCC2` ?
### Response 6.32

----------
biological target: Butyrylcholinesterase (Equus caballus, UniProt Q9N1N9); assay: Inhibition of equine serum BuChE by Ellman's assay
Sequence (Q9N1N9 whole entry): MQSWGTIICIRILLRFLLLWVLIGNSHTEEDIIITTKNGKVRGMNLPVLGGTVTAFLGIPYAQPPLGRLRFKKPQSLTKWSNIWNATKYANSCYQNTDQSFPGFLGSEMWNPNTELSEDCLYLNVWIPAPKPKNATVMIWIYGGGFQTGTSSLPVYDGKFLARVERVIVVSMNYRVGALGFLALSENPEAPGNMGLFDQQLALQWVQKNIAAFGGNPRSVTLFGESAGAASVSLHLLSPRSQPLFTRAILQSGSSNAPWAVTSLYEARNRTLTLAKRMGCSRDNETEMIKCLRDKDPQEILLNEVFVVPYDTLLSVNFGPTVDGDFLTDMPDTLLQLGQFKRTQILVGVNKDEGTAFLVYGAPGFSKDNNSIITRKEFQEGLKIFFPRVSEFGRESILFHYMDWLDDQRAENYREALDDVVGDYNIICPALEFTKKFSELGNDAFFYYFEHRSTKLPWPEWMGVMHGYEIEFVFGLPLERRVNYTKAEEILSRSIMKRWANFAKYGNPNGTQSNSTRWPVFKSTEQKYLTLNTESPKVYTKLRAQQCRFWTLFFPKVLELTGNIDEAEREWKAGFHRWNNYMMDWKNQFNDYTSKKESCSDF
Please provide measured pIC50 for the entries that follow.
Notebook: values listed as pIC50 are -log10 of the concentration (mol/L).

### Prompt So what does the record say about pIC50 for `Clc1ccc2/c(=N/CCCCCCCC/N=c3/c4ccc(Cl)cc4nc4n3CCC4)n3c(nc2c1)CCC3` ?
### Response 7.35

### Prompt Cool, now `NCCCCC/N=c1/c2ccc(Cl)cc2nc2n1CCC2`
### Response 6.72

### Prompt And the next one, O=C(CCCCC1CCSS1)NCCCCCCCC/N=c1/c2ccc(Cl)cc2nc2n1CCC2 (centres undefined) ?
### Response 8.24

### Prompt Also need O=C(CCCCC1CCSS1)NCCC/N=c1/c2ccc(Cl)cc2nc2n1CCC2 (centres undefined) , thanks.
### Response 5.59
